Measurement Description: Cellular toxicity assay in CEM cells
Format: cell-based
Condition Notes: human, CEM lymphoblastoid cells, Table 8A; MTT; read-out: Cytotoxicity: MTT IC50, CEM
Experimental: The toxicity of the compounds was assessed in Vero, human PBM, CEM (human lymphoblastoid), MT-2, and HepG2 cells, as described previously (see Schinazi R. F., Sommadossi J.-P., Saalmann V., Cannon D. L., Xie M.-Y., Hart G. C., Smith G. A. & Hahn E. F. Antimicrob. Agents Chemother. 1990, 34, 1061-67). Cycloheximide was included as positive cytotoxic control, and untreated cells exposed to solvent were included as negative controls. […]
Experimental Endpoint: pIC50
Answers are plain numbers, as −log10 of the molar value.

Hey, can you go through the list below and give me pIC50 for every item?
1. C#C[C@]1(CO)O[C@@H](n2cnc3c(N)nc(F)nc32)C[C@@H]1O [drawing 67]
2. C#C[C@]1(CO)O[C@@H](n2cnc3c(N)nc(F)nc32)[C@H](O)[C@@H]1O [drawing 68]

[5.77, 5.72]
